Ref: ChEMBL document CHEMBL3885861

- Organism: Rattus norvegicus
- ASSAY PROCEDURE: Open TG-GATES - Regimen: Single
- Format: toxicity, organism-based, Sprague-Dawley
- Set-up: regimen Single, gender Male, age 6 weeks
- DETAILS: in vivo, po, 0 mg/kg, 6 h, route gavage, dose level Control
Parameter TERMINAL_BW: see the listing below.
Your answer should be a plain number; it is taken to be in g.

NNC(=O)c1ccncc1 [ISONIAZID] : 221.6
CC/C(=C(\c1ccccc1)c1ccc(OCCN(C)C)cc1)c1ccccc1 [TAMOXIFEN] : 192.7
O=C(CCCN1CCC(O)(c2ccc(Cl)cc2)CC1)c1ccc(F)cc1 [HALOPERIDOL] : 200.9
CN(C)CCN(Cc1cccs1)c1ccccn1 : 186.2

[in] Quick one: TERMINAL_BW of COC1=CC(=O)C[C@@H](C)[C@]12Oc1c(Cl)c(OC)cc(OC)c1C2=O [GRISEOFULVIN] ?
[out] 210.2

[in] Same question for C[C@@H]1C[C@H]2[C@@H]3CCC4=CC(=O)C=C[C@]4(C)[C@@]3(F)[C@@H](O)C[C@]2(C)[C@@]1(O)C(=O)CO [DEXAMETHASONE] please.
[out] 209.7

[in] Same question for CCCNC(=O)NS(=O)(=O)c1ccc(Cl)cc1 [CHLORPROPAMIDE] please.
[out] 194.7

[in] Same question for CCOC(=O)CCC(=O)O[C@H]1[C@H](O[C@@H]2[C@@H](C)[C@H](O[C@H]3C[C@@](C)(OC)[C@@H](O)[C@H](C)O3)[C@@H](C)C(=O)O[C@H](CC)[C@@](C)(O)[C@H](O)[C@@H](C)C(=O)[C@H](C)C[C@@]2(C)O)O[C@H](C)C[C@@H]1N(C)C [ERYTHROMYCIN ETHYLSUCCINATE] please.
[out] 212.6

[in] Same question for Cc1ccc(C)c(OCCCC(C)(C)C(=O)O)c1 [GEMFIBROZIL] please.
[out] 221.6

[in] Same question for COc1cc2c(c(OC)c1OC)-c1ccc(OC)c(=O)cc1[C@@H](NC(C)=O)CC2 [COLCHICINE] please.
[out] 218.4

[in] Same question for CN(C)CCCN1c2ccccc2CCc2ccccc21 [IMIPRAMINE] please.
[out] 201.5

[in] Same question for CN1C(=O)CN=C(c2ccccc2)c2cc(Cl)ccc21 [DIAZEPAM] please.
[out] 213

[in] Same question for COc1ccc2[nH]c([S+]([O-])Cc3ncc(C)c(OC)c3C)nc2c1 (configuration not stated) [OMEPRAZOLE] please.
[out] 218.1

[in] Same question for CCOc1ccc(NC(=O)CC(C)O)cc1 (configuration not stated) [BUCETIN] please.
[out] 211.1

[in] Same question for NC(N)=Nc1nc(CSCCC(N)=NS(N)(=O)=O)cs1 [FAMOTIDINE] please.
[out] 212.9

[in] Same question for CN(C)CCCN1c2ccccc2CCc2ccc(Cl)cc21 [CLOMIPRAMINE] please.
[out] 213.9

[in] Same question for CC1=C(/C=C/C(C)=C/C=C/C(C)=C/CO)C(C)(C)CCC1 [RETINOL] please.
[out] 199.1

---

- Organism: Rattus norvegicus
- ASSAY PROCEDURE: Open TG-GATES - Regimen: Daily Repeat
- Type: toxicity, organism-based, Sprague-Dawley
- Set-up: regimen Daily Repeat, gender Male, age 6 weeks
- DETAILS: in vivo, po, 100 mg/kg, […], tissue Blood, route gavage, dose level Low, time 28 day
Parameter Lym: see the listing below.
Your answer should be a plain number; it is taken to be in %.

Example entries begin here.
COc1ccc2[nH]c([S+]([O-])Cc3ncc(C)c(OC)c3C)nc2c1 (stereo not given) : 79.6
COC1=CC(=O)C[C@@H](C)[C@]12Oc1c(Cl)c(OC)cc(OC)c1C2=O : 81.8
CCOc1ccc(NC(=O)CC(C)O)cc1 (stereo not given) : 81
CCOC(=O)CCC(=O)O[C@H]1[C@H](O[C@@H]2[C@@H](C)[C@H](O[C@H]3C[C@@](C)(OC)[C@@H](O)[C@H](C)O3)[C@@H](C)C(=O)O[C@H](CC)[C@@](C)(O)[C@H](O)[C@@H](C)C(=O)[C@H](C)C[C@@]2(C)O)O[C@H](C)C[C@@H]1N(C)C [ERYTHROMYCIN ETHYLSUCCINATE] : 86

As a next step, examine the compound that follows.
[in] Quick one: Lym of NC(N)=Nc1nc(CSCCC(N)=NS(N)(=O)=O)cs1 ?
[out] 81.2
